Molecular target: T1, human chemokine (C-C motif) receptor 8 (CCR8) protein (human, UniProt P51685 1-355)
T1 construct: whole, on cells; also called human CCR8
Assay: cell binding, CCR8-expressing CHO-K1 cells, curve fit
Parameters: unit not given here
READOUT_KIND: LogEC50

Query: Could you share which LogEC50 value was measured for 88-H1L3 (antibody, V domains shown, Humanized 88D2C6) VH: EVQLVESGGGLVQPGGSLKLSCAASGFTFNPNAMNWVRQASGKGLEWVGRIRSKSNNYATYYADSVKDRFTISRDDSKNTAYLQMNSLKTEDTAVYYCTRGKDDGYRHYAMDYWGQGTTVTVSS VL: DIVMTQAPLSLPVTPGEPVSISCRSSKSLLHSNANTYLYWFLQKPGQSPQLLIYRMSNLASGVPDRFSGSGSGTAFTLKISRVEAEDVGVYYCMQHLEYPFTFGGGTKLEIK ?
Response: -0.519

Query: Now consider 88-H2L3 (antibody, V domains shown, Humanized 88D2C6) VH: EVQLVESGGGLVQPGGSLKLSCAASGFTFNPNAMNWVRQASGKGLEWVGRIRSKSNNYATYYADSVKDRFTISRDDSKNTAYLQMNNLKTEDTAVYYCVRGKDDGYRHYAMDYWGQGTTVTVSS VL: DIVMTQAPLSLPVTPGEPVSISCRSSKSLLHSNANTYLYWFLQKPGQSPQLLIYRMSNLASGVPDRFSGSGSGTAFTLKISRVEAEDVGVYYCMQHLEYPFTFGGGTKLEIK .
Response: -0.546

Query: Now consider 88-H3L2 (antibody, V domains shown, Humanized 88D2C6) VH: EVQLVESGGGLVQPGGSLKLSCAASGFTFNPNAMNWVRQASGKGLEWVARIRSKSNNYATYYADSVKDRFTISRDDSKNTLYLQMNNLKTEDTAVYYCVRGKDDGYRHYAMDYWGQGTTVTVSS VL: DIVMTQSPLSLPVTPGEPASISCRSSKSLLHSNANTYLYWFLQKPGQSPQLLIYRMSNLASGVPDRFSGSGSGTAFTLKISRVEAEDVGVYYCMQHLEYPFTFGGGTKVEIK .
Response: -0.686

Query: Now consider 88-xi (antibody, V domains shown, also called 88D2C6; chimeric 88D2C6) VH: EVQLVETGGGLVQPKGSLKLSCAASGFTFNPNAMNWVRQAPGKGLEWVARIRSKSNNYATYYADSVKDRFTISRDDSQSMLYLQMNNLKTEDTAMYYCVRGKDDGYRHYAMDYWGQGTSVTVSS VL: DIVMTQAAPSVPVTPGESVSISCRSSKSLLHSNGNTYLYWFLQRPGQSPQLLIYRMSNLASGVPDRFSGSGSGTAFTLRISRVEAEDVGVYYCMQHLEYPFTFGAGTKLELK .
Response: -0.655

Query: Now consider 88-H2L2 (antibody, V domains shown, Humanized 88D2C6) VH: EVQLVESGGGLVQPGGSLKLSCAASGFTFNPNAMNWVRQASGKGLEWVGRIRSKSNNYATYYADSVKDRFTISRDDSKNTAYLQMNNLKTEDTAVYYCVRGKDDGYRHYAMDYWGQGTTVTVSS VL: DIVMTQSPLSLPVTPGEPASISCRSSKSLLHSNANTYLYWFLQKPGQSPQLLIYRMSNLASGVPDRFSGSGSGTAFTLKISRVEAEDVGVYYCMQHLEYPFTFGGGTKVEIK .
Response: -0.639

Query: Now consider 88-H3L3 (antibody, V domains shown, Humanized 88D2C6) VH: EVQLVESGGGLVQPGGSLKLSCAASGFTFNPNAMNWVRQASGKGLEWVARIRSKSNNYATYYADSVKDRFTISRDDSKNTLYLQMNNLKTEDTAVYYCVRGKDDGYRHYAMDYWGQGTTVTVSS VL: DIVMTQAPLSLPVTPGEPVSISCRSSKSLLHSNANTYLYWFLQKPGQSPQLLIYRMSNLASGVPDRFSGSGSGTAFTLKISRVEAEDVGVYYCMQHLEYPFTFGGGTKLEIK .
Response: -0.583

Query: Now consider 88-H1L2 (antibody, V domains shown, Humanized 88D2C6) VH: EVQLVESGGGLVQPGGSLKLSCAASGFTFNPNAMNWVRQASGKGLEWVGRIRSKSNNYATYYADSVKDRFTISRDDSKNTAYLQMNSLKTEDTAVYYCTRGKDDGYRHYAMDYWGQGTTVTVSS VL: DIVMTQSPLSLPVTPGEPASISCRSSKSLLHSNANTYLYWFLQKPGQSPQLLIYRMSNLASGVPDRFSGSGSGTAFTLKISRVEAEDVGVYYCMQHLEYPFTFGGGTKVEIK .
Response: -0.751

Origin of measurements: patent US20220195057A1
